Taken from patent US11484534B2.

- Assay remarks: Phase 1 single and multiple ascending dose and food effect study of Compound 2 in healthy subjects
- Run conditions: human, in vivo

Compound: COC(=O)N[C@H](C(=O)N1CCC[C@H]1c1nc2cc([C@H]3CC[C@H](c4cc5nc([C@@H]6CCCN6C(=O)[C@@H](NC(=O)OC)[C@@H](C)OC)[nH]c5cc4F)N3c3cc(F)c(N4CCC(c5ccc(F)cc5)CC4)c(F)c3)c(F)cc2[nH]1)[C@@H](C)OC
Tmax: 3 to 5 h

---

- Type: in vivo, human
- Run conditions: human, in vivo; HCV-infected subjects, coadministration
Listing of recorded Tmax by entry.

Compound: CC(C)(C)[C@@H]1NC(=O)O[C@@H]2CCC[C@H]2OC/C=C/C(F)(F)c2nc3ccccc3nc2O[C@@H]2C[C@@H](C(=O)N[C@]3(C(=O)NS(=O)(=O)C4(C)CC4)C[C@H]3C(F)F)N(C2)C1=O
Tmax: 2 to 4 h
//
Compound: COC(=O)N[C@H](C(=O)N1CCC[C@H]1c1nc2cc([C@H]3CC[C@H](c4cc5nc([C@@H]6CCCN6C(=O)[C@@H](NC(=O)OC)[C@@H](C)OC)[nH]c5cc4F)N3c3cc(F)c(N4CCC(c5ccc(F)cc5)CC4)c(F)c3)c(F)cc2[nH]1)[C@@H](C)OC
Tmax: 2 to 4 h
